Tested on: A549
Test: Cytotoxicity against human A549 cells assessed as reduction in cell viability after 20 hrs by MTT assay
Type: functional, cell-based
Details: A549, 20 h
Consider the following compounds and their measured pIC50 readings.
The quantity pIC50 is defined as the negative base-10 logarithm of the molar concentration.

>>> observed_result("Cc1cc(Nc2nc3ccccc3s2)nc(SCc2nc3ccccc3s2)n1")
4.98

Now for another entry.
## Task Look at this compound and give its reported pIC50. Cc1cc(Sc2nc3ccccc3s2)nc(SCc2nc3ccccc3s2)n1
## Result 4.15

---

Tested on: Pseudomonas aeruginosa
Assay: Antimicrobial activity against Pseudomonas aeruginosa at 100 ug/well after 24 hrs by agar well diffusion method
Format: functional
Conditions: read-out: DIZ
# if value of zone of inhibition at 100 µg/disc reaches 20 mm, tag True; if it stays below, tag False

Solved entries (count: 3):
>>> cat("Cc1cc(Sc2nc3ccccc3s2)nc(SCc2nc3ccccc3s2)n1")
"False"
>>> cat("Cc1cc(SCc2nc3ccccc3o2)nc(SCc2nc3ccccc3o2)n1")
"True"
>>> cat("Cc1cc(Nc2nc3ccccc3[nH]2)nc(SCc2nc3ccccc3[nH]2)n1")
"True"

## Task Entry Cc1cc(Cl)nc(SCc2nc3ccccc3o2)n1 : is its zone of inhibition at 100 µg/disc no less than 20 mm?
## Result False

## Task Entry O=C(O)c1cn(C2CC2)c2cc(N3CCNCC3)c(F)cc2c1=O : is its zone of inhibition at 100 µg/disc no less than 20 mm?
## Result True

---

System: Pseudomonas aeruginosa
Experiment: Antimicrobial activity against Pseudomonas aeruginosa at 25 ug/well after 24 hrs by agar well diffusion method
Assay type: functional
Conditions: read-out: DIZ
# if value of zone of inhibition at 25 µg/disc reaches 20 mm, tag Y; if it stays below, tag N

Solved entries (count: 10):
>>> cat("Cc1cc(Nc2nc3ccccc3[nH]2)nc(SCc2nc3ccccc3[nH]2)n1")
"N"
>>> cat("Cc1cc(SCc2nc3ccccc3[nH]2)nc(SCc2nc3ccccc3[nH]2)n1")
"Y"
>>> cat("Cc1cc(Nc2nc3ccccc3s2)nc(SCc2nc3ccccc3s2)n1")
"N"
>>> cat("Cc1cc(Cl)nc(SCc2nc3ccccc3s2)n1")
"N"
>>> cat("Cc1cc(SCc2nc3ccccc3s2)nc(SCc2nc3ccccc3s2)n1")
"N"
>>> cat("Cc1cc(SCc2nc3ccccc3o2)nc(SCc2nc3ccccc3o2)n1")
"N"
>>> cat("Cc1cc(Cl)nc(SCc2nc3ccccc3o2)n1")
"N"
>>> cat("Cc1cc(Sc2nc3ccccc3[nH]2)nc(SCc2nc3ccccc3[nH]2)n1")
"N"
>>> cat("Cc1cc(Cl)nc(SCc2nc3ccccc3[nH]2)n1")
"N"
>>> cat("Cc1cc(Nc2nc3ccccc3o2)nc(SCc2nc3ccccc3o2)n1")
"N"

## Task Entry Cc1cc(Sc2nc3ccccc3s2)nc(SCc2nc3ccccc3s2)n1 : is its zone of inhibition at 25 µg/disc no less than 20 mm?
## Result N

## Task Entry O=C(O)c1cn(C2CC2)c2cc(N3CCNCC3)c(F)cc2c1=O : is its zone of inhibition at 25 µg/disc no less than 20 mm?
## Result Y

## Task Entry Cc1cc(Sc2nc3ccccc3o2)nc(SCc2nc3ccccc3o2)n1 : is its zone of inhibition at 25 µg/disc no less than 20 mm?
## Result N
